Each record here notes measured ALT.
Test system: liver
Test: CCl4 induced hepatotoxicity in rats (serum AST/ALT)
Format: in vivo, rat
Details: 100 mg/kg ip, PEG 400 vehicle, 48 h after 1 g/kg CCl4 (Table 34)
Structures can show the parent of a compound that is named as a salt.

- compound: "CC(C)CCC[C@@H](C)[C@H]1CC[C@H]2[C@@H]3CC[C@H]4C[C@@H](OS(=O)(=O)O)CC[C@]4(C)[C@H]3CC[C@]12C [Dihydrocholesterol sulfate, sodium salt]"
  systemTested: "liver"
  ALT: "0.03 ± 0.03 10^3 units/L"
- compound: "CC(C)CCC[C@@H](C)[C@H]1CC[C@H]2[C@@H]3CC=C4C[C@@H](OC(=O)c5ccccc5C(=O)O)CC[C@]4(C)[C@H]3CC[C@]12C [Cholesteryl hydrogen phthalate]"
  systemTested: "liver"
  ALT: "0.06 ± 0.03 10^3 units/L"
- compound: "CC(C)CCC[C@@H](C)[C@H]1CC[C@H]2[C@@H]3CC=C4C[C@@H](OC(=O)CCC(=O)O)CC[C@]4(C)[C@H]3CC[C@]12C [Cholesteryl Succinate tris salt]"
  systemTested: "liver"
  ALT: "0.07 ± 0.03 10^3 units/L"
- compound: "C[C@]12CC[C@H](OS(=O)(=O)O)CC1=CC[C@@H]1[C@@H]2CC[C@]2(C)C(=O)CC[C@@H]12 [Dehydroepiandosterone 3-sulfate]"
  systemTested: "liver"
  ALT: "3.89 ± 0.81 10^3 units/L"
